Tested on: human PKK mRNA
Assay: Dose-dependent antisense inhibition of human PKK in HepaRG cells, 0.11-3.00 uM (Example 6)
Format: cell-based
Conditions: electroporation, 3.00 μM, approx. 16 hours, relative to untreated control cells
Strand notation (5' to 3'): a small letter for the sugar, then the base; units joined by * are phosphorothioate-linked, units joined directly phosphodiester-linked; [ ] holds rarer units or linkages, { } end groups; capitals alone tell only the bases. e = 2'-O-(2-methoxyethyl) (MOE); k = constrained ethyl (cEt); [5mC] = 5-methylcytosine; d = 2'-deoxy (DNA)
The entries below are paired with their reported percent inhibition of PKK mRNA, 3.00 μM.
Parameter: percent inhibition of PKK mRNA, 3.00 μM (%)

Substance | Study Target | Parameter | Experimental Value
547843 (antisense e[5mC]*eA*k[5mC]*dT*dT*dA*dT*dT*dT*dG*dA*dT*dG*kA*k[5mC]*e[5mC]) [compound 547843] | human PKK mRNA | percent inhibition of PKK mRNA, 3.00 μM | 91
548069 (e[5mC]*e[5mC]*kA*dA*d[5mC]*dA*dG*dT*dT*dG*dG*dT*dA*kT*kA*eA; antisense) [compound 548069] | human PKK mRNA | percent inhibition of PKK mRNA, 3.00 μM | 66
548024 (eG*e[5mC]*kT*dG*dT*d[5mC]*dA*dG*d[5mC]*dT*dT*d[5mC]*dA*k[5mC]*k[5mC]*eT; antisense) [compound 548024] | human PKK mRNA | percent inhibition of PKK mRNA, 3.00 μM | 82
548547 (antisense eG*eT*kG*d[5mC]*dG*dA*dT*dT*dA*dA*dG*d[5mC]*d[5mC]*k[5mC]*k[5mC]*eA) [compound 548547] | human PKK mRNA | percent inhibition of PKK mRNA, 3.00 μM | 90
548343 (antisense eT*eA*kG*dT*dG*dA*dT*dA*dA*dG*dA*dG*d[5mC]*kT*kG*eG) [compound 548343] | human PKK mRNA | percent inhibition of PKK mRNA, 3.00 μM | 92
548558 (antisense eA*eA*k[5mC]*dA*dT*dT*dG*dT*dG*dT*dA*dG*d[5mC]*kT*kG*e[5mC]) [compound 548558] | human PKK mRNA | percent inhibition of PKK mRNA, 3.00 μM | 95
548055 (eG*eT*kA*dA*dT*dT*d[5mC]*dA*dA*dA*dG*dG*dA*kG*k[5mC]*e[5mC]; antisense) [compound 548055] | human PKK mRNA | percent inhibition of PKK mRNA, 3.00 μM | 88

====

Test system: human PKK mRNA
Assay: Antisense inhibition of human PKK mRNA in HepaRG cells, 1,000 nM, MOE/deoxy/cEt oligonucleotides (Example 3)
Format: cell-based
Conditions: Table 21 experiment; HepaRG cells, electroporation with 1,000 nM antisense oligonucleotide, approx. 24 hours; PKK mRNA by RT-PCR (RTS3454), relative to untreated control cells
Strand notation (5' to 3'): a small letter for the sugar, then the base; units joined by * are phosphorothioate-linked, units joined directly phosphodiester-linked; [ ] holds rarer units or linkages, { } end groups; capitals alone tell only the bases. e = 2'-O-(2-methoxyethyl) (MOE); k = constrained ethyl (cEt); [5mC] = 5-methylcytosine; d = 2'-deoxy (DNA)
Parameter: % inhibition (%)

Substance | Study Target | Experimental Value
547817 (eT*eG*kA*dA*d[5mC]*dT*dT*dG*d[5mC]*dT*dG*dG*dA*kA*kG*eA; antisense) [compound 547817] | human PKK mRNA | 18
547810 (e[5mC]*e[5mC]*kT*d[5mC]*dA*dT*d[5mC]*dT*dG*dG*d[5mC]*dA*dG*kT*kA*eT; antisense) [compound 547810] | human PKK mRNA | 60
547842 (antisense eG*eA*kT*dG*dA*d[5mC]*d[5mC]*dA*d[5mC]*dA*dT*dT*dG*k[5mC]*kT*eT) [compound 547842] | human PKK mRNA | 10
547793 (antisense eA*eT*k[5mC]*d[5mC]*dA*d[5mC]*dA*dG*dG*dA*dA*dA*d[5mC]*kT*kG*eT) [compound 547793] | human PKK mRNA | 16
547838 (e[5mC]*eT*kT*d[5mC]*dA*dA*dG*dG*dA*dA*dT*dG*dT*k[5mC]*k[5mC]*eA; antisense) [compound 547838] | human PKK mRNA | 45
547830 (eG*e[5mC]*kA*d[5mC]*d[5mC]*dT*dG*dT*dT*d[5mC]*dG*dA*dT*kG*kT*eA; antisense) [compound 547830] | human PKK mRNA | 74

====

The entries below are paired with their reported % inhibition.
System: human PKK mRNA
Test: Antisense inhibition of human PKK mRNA in HepaRG cells, 3,000 nM (Example 1)
Type: cell-based
Conditions: Table 2; PKK mRNA, HepaRG cells, 3,000 nM, electroporation, ~24 h, relative to untreated control cells
Strand notation (5' to 3'): a small letter for the sugar, then the base; units joined by * are phosphorothioate-linked, units joined directly phosphodiester-linked; [ ] holds rarer units or linkages, { } end groups; capitals alone tell only the bases. e = 2'-O-(2-methoxyethyl) (MOE); [5mC] = 5-methylcytosine; d = 2'-deoxy (DNA)

Substance | % inhibition [%]
531034 (antisense e[5mC]*eA*eT*eA*eT*dT*dG*dG*dT*dT*dT*dT*dT*dG*dG*eA*eA*eT*eT*e[5mC]) [compound 531034] | 36
531059 (antisense eA*e[5mC]*eA*eT*eT*d[5mC]*d[5mC]*dA*dT*dT*dG*dT*dG*dT*dT*eT*eG*e[5mC]*eA*eA) [compound 531059] | 55
531045 (antisense eT*eT*eT*e[5mC]*eT*dG*dG*d[5mC]*dA*dT*dT*d[5mC]*dT*dT*d[5mC]*eA*eT*eT*eT*eG) [compound 531045] | 37
531065 (antisense e[5mC]*eT*eT*eT*eG*dG*dT*dG*dT*dA*dG*dA*d[5mC]*dA*d[5mC]*e[5mC]*eA*eG*eG*eT) [compound 531065] | 57
531078 (eA*eG*e[5mC]*eA*eG*d[5mC]*dT*d[5mC]*dT*dG*dA*dG*dT*dG*d[5mC]*eA*e[5mC]*eT*eG*eT; antisense) [compound 531078] | 77
531043 (antisense eA*eT*eT*eT*eG*dT*dT*dA*d[5mC]*d[5mC]*dA*dA*dA*dG*dG*eA*eA*eT*eA*eT) [compound 531043] | 27

====

Test system: human PKK mRNA
Assay: Antisense inhibition of human PKK mRNA in HepaRG cells, 1,000 nM, MOE/deoxy/cEt oligonucleotides (Example 3)
Format: cell-based
Details: Table 19; HepaRG cells, electroporation with 1,000 nM antisense oligonucleotide, approximately 24 hours; PKK mRNA by RT-PCR (RTS3454), relative to untreated control cells
Strand notation (5' to 3'): a small letter for the sugar, then the base; units joined by * are phosphorothioate-linked, units joined directly phosphodiester-linked; [ ] holds rarer units or linkages, { } end groups; capitals alone tell only the bases. e = 2'-O-(2-methoxyethyl) (MOE); k = constrained ethyl (cEt); [5mC] = 5-methylcytosine; d = 2'-deoxy (DNA)

Substance | % inhibition
548084 (eA*eA*kG*dG*dG*dA*d[5mC]*d[5mC]*dA*d[5mC]*d[5mC]*dT*dG*kA*kA*eT; antisense) [compound 548084] | 0%
548098 (antisense eA*eG*kA*d[5mC]*dA*d[5mC]*d[5mC]*dA*dG*dG*dT*dT*dG*k[5mC]*kT*e[5mC]) [compound 548098] | 0%
548079 (e[5mC]*e[5mC]*kT*dT*d[5mC]*dT*dT*dT*dA*dT*dA*dG*d[5mC]*k[5mC]*kA*eG; antisense) [compound 548079] | 39%
548142 (eA*e[5mC]*kT*d[5mC]*dT*d[5mC]*d[5mC]*dA*dT*dG*d[5mC]*dT*dT*kT*kG*e[5mC]; antisense) [compound 548142] | 44%
548115 (antisense e[5mC]*eA*kT*dG*d[5mC]*dT*dG*dG*dT*dG*dA*d[5mC]*dT*kG*k[5mC]*eA) [compound 548115] | 76%
548081 (e[5mC]*e[5mC]*k[5mC]*d[5mC]*dT*dT*d[5mC]*dT*dT*dT*dA*dT*dA*kG*k[5mC]*e[5mC]; antisense) [compound 548081] | 64%
548094 (antisense eG*eT*kT*dT*dG*d[5mC]*dA*dA*dA*d[5mC]*dT*dA*dA*kG*kG*eG) [compound 548094] | 74%
548107 (antisense eT*e[5mC]*k[5mC]*dA*dT*dG*dT*dA*d[5mC]*dT*d[5mC]*dA*dG*k[5mC]*kG*eA) [compound 548107] | 76%
548137 (eA*eG*kG*d[5mC]*dT*d[5mC]*dA*dG*dA*dA*dT*dT*dT*kG*kA*e[5mC]; antisense) [compound 548137] | 62%
548089 (antisense eA*eA*kA*d[5mC]*dT*dA*dA*dG*dG*dG*dA*d[5mC]*d[5mC]*kA*k[5mC]*e[5mC]) [compound 548089] | 34%
548126 (eT*eG*k[5mC]*d[5mC]*dT*dA*dG*dA*d[5mC]*dT*d[5mC]*dT*dG*kG*kA*e[5mC]; antisense) [compound 548126] | 19%
548147 (e[5mC]*eG*kT*d[5mC]*d[5mC]*dT*dT*dA*dG*dG*dA*dT*dG*k[5mC]*kA*eA; antisense) [compound 548147] | 81%
548082 (eA*eA*kG*d[5mC]*dA*dT*d[5mC]*dT*dT*dT*dT*d[5mC]*d[5mC]*k[5mC]*k[5mC]*e[5mC]; antisense) [compound 548082] | 42%
548102 (antisense eG*eT*kA*d[5mC]*dT*d[5mC]*dA*dG*d[5mC]*dG*dA*d[5mC]*dT*kT*kT*eG) [compound 548102] | 58%
548116 (antisense eT*e[5mC]*kA*dT*dG*d[5mC]*dT*dG*dG*dT*dG*dA*d[5mC]*kT*kG*e[5mC]) [compound 548116] | 3%
548096 (antisense eG*eT*kG*dT*dT*dT*dG*d[5mC]*dA*dA*dA*d[5mC]*dT*kA*kA*eG) [compound 548096] | 23%
548103 (antisense eT*eG*kT*dA*d[5mC]*dT*d[5mC]*dA*dG*d[5mC]*dG*dA*d[5mC]*kT*kT*eT) [compound 548103] | 66%
548086 (antisense e[5mC]*eT*kA*dA*dG*dG*dG*dA*d[5mC]*d[5mC]*dA*d[5mC]*d[5mC]*kT*kG*eA) [compound 548086] | 36%
548078 (eT*e[5mC]*kT*dT*d[5mC]*dA*dT*dT*dT*dG*dT*dT*dA*k[5mC]*k[5mC]*eA; antisense) [compound 548078] | 36%
548097 (antisense eT*eG*k[5mC]*dT*d[5mC]*d[5mC]*d[5mC]*dT*dG*d[5mC]*dG*dG*dG*k[5mC]*kA*e[5mC]) [compound 548097] | 2%

Taken from patent US11840686B2.
